Data provenance: patent US9493436B2

experimental_system: mPTPB (Mycobacterium tuberculosis, UniProt I6WXK4)
Construct: The full-length mPTPB with a N-terminal His6-tag was expressed and purified; His6 (N); made in house; host or cells: E. coli BL21/DE3 (pET28b-mPTPB)
Sequence (I6WXK4 whole entry): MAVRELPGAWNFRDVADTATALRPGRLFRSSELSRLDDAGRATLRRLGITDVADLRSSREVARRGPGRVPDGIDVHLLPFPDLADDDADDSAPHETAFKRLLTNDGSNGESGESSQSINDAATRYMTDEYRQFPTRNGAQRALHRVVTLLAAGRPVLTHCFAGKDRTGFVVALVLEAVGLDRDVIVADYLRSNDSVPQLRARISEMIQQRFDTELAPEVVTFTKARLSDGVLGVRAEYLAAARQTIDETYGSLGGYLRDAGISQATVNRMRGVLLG
procedure_details: biochemical
Type: biochemical
condition_parameters: read-out: IC50 for mPTPB
pIC50: −log10 of the molar value.
assay_readout: pIC50

What measured pIC50 goes with CC(C)c1ccc(NC(=O)COc2cccc(-c3oc4cc(O)c(C(=O)O)cc4c3C#Cc3cccc(Cl)c3)c2)cc1 ?
~7.60

---

Hi there, I'd appreciate the recorded IC50 for every entry that follows.
experimental_system: FAP1 (Homo sapiens)
Sequence (Q12923 whole entry, species assumed): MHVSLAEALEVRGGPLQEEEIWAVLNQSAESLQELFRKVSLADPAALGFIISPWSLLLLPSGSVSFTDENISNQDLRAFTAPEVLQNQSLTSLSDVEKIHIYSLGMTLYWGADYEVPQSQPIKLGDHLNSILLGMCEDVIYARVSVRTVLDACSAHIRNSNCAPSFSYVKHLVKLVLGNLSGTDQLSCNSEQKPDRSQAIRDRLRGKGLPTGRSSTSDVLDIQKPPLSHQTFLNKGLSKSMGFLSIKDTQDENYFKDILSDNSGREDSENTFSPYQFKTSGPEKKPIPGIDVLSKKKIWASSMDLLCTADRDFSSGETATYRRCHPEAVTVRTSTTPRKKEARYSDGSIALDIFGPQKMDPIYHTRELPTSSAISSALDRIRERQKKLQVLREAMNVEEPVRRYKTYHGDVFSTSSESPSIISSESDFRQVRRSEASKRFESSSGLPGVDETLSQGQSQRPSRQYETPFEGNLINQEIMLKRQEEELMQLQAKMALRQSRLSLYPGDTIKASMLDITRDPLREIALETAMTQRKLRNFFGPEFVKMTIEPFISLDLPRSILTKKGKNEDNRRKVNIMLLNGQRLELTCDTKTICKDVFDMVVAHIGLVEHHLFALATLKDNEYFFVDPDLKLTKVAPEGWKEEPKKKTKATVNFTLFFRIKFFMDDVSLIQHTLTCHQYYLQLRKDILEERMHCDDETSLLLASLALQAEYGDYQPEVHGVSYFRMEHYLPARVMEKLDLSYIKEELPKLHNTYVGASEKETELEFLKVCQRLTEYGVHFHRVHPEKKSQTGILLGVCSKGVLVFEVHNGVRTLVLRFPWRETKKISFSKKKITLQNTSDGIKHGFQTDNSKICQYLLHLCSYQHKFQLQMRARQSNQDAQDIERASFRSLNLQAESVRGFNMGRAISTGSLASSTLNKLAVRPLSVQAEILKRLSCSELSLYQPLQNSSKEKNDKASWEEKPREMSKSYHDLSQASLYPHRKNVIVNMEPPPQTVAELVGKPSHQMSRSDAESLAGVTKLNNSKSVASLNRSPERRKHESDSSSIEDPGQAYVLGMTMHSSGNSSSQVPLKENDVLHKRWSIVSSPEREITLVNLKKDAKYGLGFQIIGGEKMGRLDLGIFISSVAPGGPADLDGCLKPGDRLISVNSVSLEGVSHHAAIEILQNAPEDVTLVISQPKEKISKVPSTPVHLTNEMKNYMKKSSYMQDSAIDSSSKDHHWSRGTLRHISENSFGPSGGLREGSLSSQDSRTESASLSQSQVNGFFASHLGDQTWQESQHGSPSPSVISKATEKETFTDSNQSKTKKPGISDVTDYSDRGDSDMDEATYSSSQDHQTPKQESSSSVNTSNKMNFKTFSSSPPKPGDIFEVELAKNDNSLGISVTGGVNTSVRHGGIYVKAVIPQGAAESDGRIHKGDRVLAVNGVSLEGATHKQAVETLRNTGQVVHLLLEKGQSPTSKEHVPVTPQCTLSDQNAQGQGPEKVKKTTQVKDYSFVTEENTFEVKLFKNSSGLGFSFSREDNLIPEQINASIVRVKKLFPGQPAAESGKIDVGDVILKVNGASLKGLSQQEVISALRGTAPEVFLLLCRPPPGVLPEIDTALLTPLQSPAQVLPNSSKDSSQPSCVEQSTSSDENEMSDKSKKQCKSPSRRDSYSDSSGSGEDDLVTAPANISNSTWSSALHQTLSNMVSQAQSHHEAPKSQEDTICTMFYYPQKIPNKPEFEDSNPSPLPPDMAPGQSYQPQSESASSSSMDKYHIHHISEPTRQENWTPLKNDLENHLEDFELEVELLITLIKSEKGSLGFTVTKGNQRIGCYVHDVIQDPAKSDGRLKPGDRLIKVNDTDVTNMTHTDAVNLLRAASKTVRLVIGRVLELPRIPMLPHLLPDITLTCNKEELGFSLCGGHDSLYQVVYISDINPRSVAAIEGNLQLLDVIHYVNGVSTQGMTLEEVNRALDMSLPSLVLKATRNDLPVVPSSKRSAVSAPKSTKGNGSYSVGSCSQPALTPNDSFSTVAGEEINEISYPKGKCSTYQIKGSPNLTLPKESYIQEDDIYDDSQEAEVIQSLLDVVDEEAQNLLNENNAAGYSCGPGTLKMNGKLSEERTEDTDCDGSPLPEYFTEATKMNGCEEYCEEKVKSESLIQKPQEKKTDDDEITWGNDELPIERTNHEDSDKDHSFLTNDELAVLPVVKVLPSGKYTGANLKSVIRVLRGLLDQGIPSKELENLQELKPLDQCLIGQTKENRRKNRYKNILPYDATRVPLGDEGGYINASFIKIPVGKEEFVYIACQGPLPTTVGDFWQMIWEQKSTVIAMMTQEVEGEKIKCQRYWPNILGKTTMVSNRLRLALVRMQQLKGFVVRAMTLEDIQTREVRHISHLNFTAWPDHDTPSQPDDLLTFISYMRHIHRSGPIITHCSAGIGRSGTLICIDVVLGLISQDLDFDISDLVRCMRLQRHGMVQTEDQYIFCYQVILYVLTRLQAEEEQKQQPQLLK
procedure_details: biochemical
Assay type: biochemical
Please state the figure in µM; there is no need to write the unit.

Form field: IC50 recorded for O=C(O)c1cc2c(C#Cc3ccc(OC(F)(F)F)cc3)c(-c3ccccc3)oc2cc1O with FAP1 (Homo sapiens) (enter value)
1.6

Which measured IC50 belongs to O=C(O)c1cc2c(C#Cc3cccc(C(F)(F)F)c3)c(-c3ccccc3)oc2cc1O , tested on FAP1 (Homo sapiens)?
1.3

Missing value: IC50, FAP1 (Homo sapiens), entry O=C(O)c1cc2c(C#Cc3cc(F)cc(F)c3)c(-c3ccccc3)oc2cc1O . Fill in?
1.9

Write down the reported IC50 of Cn1c(-c2ccccc2C(F)(F)F)c(I)c2cc(C(=O)O)c(O)cc21 [Compound 207a] , test system: FAP1 (Homo sapiens).
84

---

procedure_details: Oral and intravenous pharmacokinetics in mice
Type: in vivo
condition_parameters: mouse, blood; mice, PO 25 mg/kg vs IV 5 mg/kg; read-out: Absolute Bioavailability (oral)
assay_readout: bioavailability (%)
Please give a number only; it is taken to be in %.

Entry O=C(O)c1cc2c(C#Cc3cccc(C(F)(F)F)c3)c(-c3ccccc3)oc2cc1O has what bioavailability?
75.6

---

Give measured IC50 for each item. Keep answers brief.
experimental_system: UniProt Q06124
Sequence (Q06124 whole entry, species assumed): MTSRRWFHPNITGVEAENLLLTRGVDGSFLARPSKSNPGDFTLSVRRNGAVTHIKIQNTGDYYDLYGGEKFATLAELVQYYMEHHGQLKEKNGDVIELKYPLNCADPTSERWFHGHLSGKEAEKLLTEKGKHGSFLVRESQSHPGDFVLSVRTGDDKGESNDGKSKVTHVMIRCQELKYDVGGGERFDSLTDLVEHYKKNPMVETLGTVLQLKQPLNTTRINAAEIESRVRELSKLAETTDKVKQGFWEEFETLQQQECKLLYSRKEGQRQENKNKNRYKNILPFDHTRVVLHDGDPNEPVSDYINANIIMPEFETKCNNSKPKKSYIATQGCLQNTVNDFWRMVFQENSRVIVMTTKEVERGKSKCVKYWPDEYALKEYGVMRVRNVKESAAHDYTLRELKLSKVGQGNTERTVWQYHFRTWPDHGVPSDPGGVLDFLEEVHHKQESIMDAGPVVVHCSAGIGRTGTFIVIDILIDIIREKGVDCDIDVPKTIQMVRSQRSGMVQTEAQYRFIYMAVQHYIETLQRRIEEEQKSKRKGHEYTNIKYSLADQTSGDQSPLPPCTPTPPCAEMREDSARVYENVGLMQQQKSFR
condition_parameters: read-out: IC50 (μM) SHP2
Answer in µM, number only, no unit symbol.

Find the measured IC50: item O=C(O)c1cc2c(C#Cc3cccc(C(F)(F)F)c3)c(-c3ccccc3)oc2cc1O , target or system UniProt Q06124.
1.8

Param readout = IC50; param system = UniProt Q06124; param query = O=C(O)c1cc2c(C#Cc3cc(F)cc(F)c3)c(-c3ccccc3)oc2cc1O ; response: value
2.2

---

experimental_system: mPTPB (Mycobacterium tuberculosis, UniProt I6WXK4)
Construct: The full-length mPTPB with a N-terminal His6-tag was expressed and purified; His6 (N); made in house; host or cells: E. coli BL21/DE3 (pET28b-mPTPB)
procedure_details: biochemical
Format: biochemical
condition_parameters: 1 μM, library 13 screened in situ
assay_readout: In % @ 1 μM (mPTPB) (%)
Write the answer as a number in %, unit excluded.

Data request, read-out In % @ 1 μM (mPTPB), for Cn1c(-c2ccccc2C(F)(F)F)c(C(=O)CCNC(=O)c2cc(Br)cc(Br)c2)c2cc(C(=O)O)c(O)cc21 [Compound 213a]
81

For the molecule shown here, Cn1c(-c2ccccc2C(F)(F)F)c(C(=O)CCNC(=O)c2ccc3nc(-c4ccccc4Br)[nH]c3c2)c2cc(C(=O)O)c(O)cc21 [Compound 213d] , give the reported In % @ 1 μM (mPTPB).
10

// query In % @ 1 μM (mPTPB) value for entry Cn1c(-c2ccccc2C(F)(F)F)c(C(=O)CCNC(=O)c2cccc(I)c2)c2cc(C(=O)O)c(O)cc21 [Compound 213b]
52

State the recorded In % @ 1 μM (mPTPB) for this entry: CC(C)[C@H]1CC[C@H](C)C[C@@H]1OCC(=O)NCCC(=O)c1c(-c2ccccc2C(F)(F)F)n(C)c2cc(O)c(C(=O)O)cc12 [Compound 213c]
5

Query (molecule): CC(=O)NCCC(=O)c1c(-c2ccccc2C(F)(F)F)n(C)c2cc(O)c(C(=O)O)cc12 [Compound 213e] ; field requested: In % @ 1 μM (mPTPB)
0

---

experimental_system: SHP1-D1C (Homo sapiens, UniProt P29350)
Sequence (P29350 244-528 limits assumed): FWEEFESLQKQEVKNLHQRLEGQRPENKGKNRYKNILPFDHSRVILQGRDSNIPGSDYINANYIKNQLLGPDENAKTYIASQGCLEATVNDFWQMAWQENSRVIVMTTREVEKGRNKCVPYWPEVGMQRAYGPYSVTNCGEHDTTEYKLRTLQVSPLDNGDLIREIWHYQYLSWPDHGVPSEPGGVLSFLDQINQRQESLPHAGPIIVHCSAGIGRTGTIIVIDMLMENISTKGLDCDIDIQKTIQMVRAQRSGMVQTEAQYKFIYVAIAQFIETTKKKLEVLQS
procedure_details: biochemical
assay_readout: IC50
Write down the value, and be sure its unit follows.

Sample Cn1c(-c2ccccc2C(F)(F)F)c(I)c2cc(C(=O)O)c(O)cc21 [Compound 207a] — what was its IC50?
86.8 µM

---

procedure_details: Oral and intravenous pharmacokinetics in mice
Type: in vivo
condition_parameters: mouse, blood; mice, IV 5 mg/kg; read-out: Vdss
assay_readout: Vd (L/kg)
Entry rule: numbers only, all in L/kg.

So what does the record say about Vd for O=C(O)c1cc2c(C#Cc3cccc(C(F)(F)F)c3)c(-c3ccccc3)oc2cc1O ?
5.53

---

experimental_system: mPTPB (Mycobacterium tuberculosis, UniProt I6WXK4)
Construct: The full-length mPTPB with a N-terminal His6-tag was expressed and purified; His6 (N); made in house; host or cells: E. coli BL21/DE3 (pET28b-mPTPB)
procedure_details: biochemical
Type: biochemical
condition_parameters: pNPP substrate, pH 7.0, 25° C.; read-out: IC50 (μM) against mPTPB
Labelling field: enter 1.0 if recorded IC50 is less than 0.7 µM. Enter 0.0 if it equals or exceeds that cut-off.

Is IC50 of O=C(O)COc1ccc(-c2oc3cc(O)c(C(=O)O)cc3c2C#Cc2cccc(Cl)c2)cc1 strictly below 0.7 µM?
1.0

is_below(IC50, 0.7 µM) for Cn1c(-c2ccccc2)c(I)c2cc(C(=O)O)c(O)cc21 [Compound 207g] ?
0.0

Strictly below 0.7 µM: is that where IC50 of Cn1c(-c2ccc(OC(F)(F)F)cc2)c(I)c2cc(C(=O)O)c(O)cc21 [Compound 207e] sits?
0.0

Does Cn1c(-c2ccccc2C(F)(F)F)c(C#Cc2cccc(C(F)(F)F)c2)c2cc(C(=O)O)c(O)cc21 [Compound 209b] have IC50 strictly under 0.7 µM?
1.0

hey, is IC50 for Cn1c(-c2ccccc2C(F)(F)F)c(C#Cc2cc(F)cc(F)c2)c2cc(C(=O)O)c(O)cc21 [Compound 209a] lower than 0.7 µM or not?
1.0

Lab note: IC50 threshold 0.7 µM. Does this compound come in strictly under it? O=C(O)COc1cccc(C#Cc2c(-c3ccc(OC(F)(F)F)cc3)oc3cc(O)c(C(=O)O)cc23)c1
1.0

Here's an entry: CC(C)[C@H]1CC[C@H](C)C[C@@H]1OCC(=O)NCCC(=O)c1c(-c2ccccc2C(F)(F)F)n(C)c2cc(O)c(C(=O)O)cc12 [Compound 213c] . Is its IC50 below 0.7 µM?
0.0

IC50 strictly < 0.7 µM for this compound? Cn1c(C2CCCCC2)c(I)c2cc(C(=O)O)c(O)cc21 [Compound 207d]
0.0

Consider the compound Cn1c(-c2ccc(C(F)(F)F)cc2)c(I)c2cc(C(=O)O)c(O)cc21 [Compound 207f] . Is its IC50 strictly less than 0.7 µM?
0.0

Input Cn1c(-c2ccccc2C(F)(F)F)c(C#Cc2ccc(C(F)(F)F)cc2)c2cc(C(=O)O)c(O)cc21 [Compound 209e] ; condition: IC50 strictly below 0.7 µM. Does it hold?
1.0

Consider the compound C#Cc1c(-c2ccc(-c3ccccc3)cc2)oc2cc(O)c(C(=O)O)cc12 . Is its IC50 strictly less than 0.7 µM?
0.0

Please check: IC50 for Cn1c(-c2ccccc2F)c(I)c2cc(C(=O)O)c(O)cc21 [Compound 207j] , strictly under 0.7 µM or not?
0.0

IC50 strictly < 0.7 µM for this compound? Cn1c(-c2ccccc2C(F)(F)F)c(C(=O)CCNC(=O)c2ccc3nc(-c4ccccc4Br)[nH]c3c2)c2cc(C(=O)O)c(O)cc21 [Compound 213d]
0.0

Could you please tell me whether IC50 recorded for CC(=O)NCCC(=O)c1c(-c2ccccc2C(F)(F)F)n(C)c2cc(O)c(C(=O)O)cc12 [Compound 213e] is less than 0.7 µM?
0.0

Consider Cn1c(-c2ccccc2C(F)(F)F)c(C(=O)CCNC(=O)c2cc(Br)cc(Br)c2)c2cc(C(=O)O)c(O)cc21 [Compound 213a] . Does its IC50 lie strictly below 0.7 µM?
1.0

Determine if Cn1c(-c2cccc(F)c2)c(I)c2cc(C(=O)O)c(O)cc21 [Compound 207h] shows IC50 strictly lower than 0.7 µM.
0.0

Is the reported IC50 for O=C(O)COc1cccc(-c2oc3cc(O)c(C(=O)O)cc3c2C#Cc2cccc(Cl)c2)c1 strictly below 0.7 µM?
1.0

State whether 0.7 µM exceeds IC50 recorded for Cn1c(-c2ccc(-c3ccccc3)cc2)c(I)c2cc(C(=O)O)c(O)cc21 [Compound 207c] .
0.0

Just wondering, is IC50 of Cn1c(-c2ccccc2C(F)(F)F)c(C#Cc2ccc(Oc3ccccc3)cc2)c2cc(C(=O)O)c(O)cc21 [Compound 209d] below 0.7 µM?
1.0

Consider C#Cc1c(-c2ccc(OC(F)(F)F)cc2)oc2cc(O)c(C(=O)O)cc12 . Does its IC50 lie strictly below 0.7 µM?
0.0

# strict comparison: is reported IC50 < 0.7 µM? input = O=C(O)c1cc2c(C#Cc3ccc(Oc4ccccc4)cc3)c(-c3ccccc3)oc2cc1O
1.0
